Molecular target: human recombinant core 3 β1,3-GlcNAc-transferase (C3GnT) (Homo sapiens, UniProt Q6ZMB0)
Sequence (Q6ZMB0 32-384 limits assumed): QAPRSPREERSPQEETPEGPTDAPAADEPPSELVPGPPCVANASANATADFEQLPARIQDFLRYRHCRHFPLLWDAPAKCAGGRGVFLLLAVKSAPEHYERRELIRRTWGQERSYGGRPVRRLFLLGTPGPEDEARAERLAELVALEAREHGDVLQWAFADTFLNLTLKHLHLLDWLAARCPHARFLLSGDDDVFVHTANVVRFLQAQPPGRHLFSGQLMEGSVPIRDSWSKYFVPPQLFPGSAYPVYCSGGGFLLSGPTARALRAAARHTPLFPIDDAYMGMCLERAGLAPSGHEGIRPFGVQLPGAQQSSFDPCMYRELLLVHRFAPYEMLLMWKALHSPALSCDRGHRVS
Test: C3GnT glycosyltransferase assay
Assay type: biochemical
Conditions: acceptor substrate 0.5 mM; 0.5 mM GalNAcα-Bn set to 100%
Marks after values point to notes of the source that are not given here.
Below, each entry is listed alongside its reported C3GnT activity (%).

{"columns": ["MOLECULE", "SYSTEM", "RECORDED_METRIC", "REPORTED_VALUE"],
 "data": [
  ["CC(=O)N[C@@H]1C[C@@H](O)[C@@H](CO)O[C@@H]1OCc1ccccc1", "human recombinant core 3 β1,3-GlcNAc-transferase (C3GnT) (Homo sapiens, UniProt Q6ZMB0)", "C3GnT activity (%)", "<1%"],
  ["CC(=O)N[C@H]1[C@@H](OCc2ccccc2)O[C@H](C)[C@H](O)[C@@H]1O", "human recombinant core 3 β1,3-GlcNAc-transferase (C3GnT) (Homo sapiens, UniProt Q6ZMB0)", "C3GnT activity (%)", "<1%"],
  ["CC(=O)N[C@H]1[C@H](OC[C@H]2O[C@H](Oc3ccccc3[N+](=O)[O-])[C@H](NC(C)=O)[C@@H](O)[C@H]2O)O[C@H](CO)[C@@H](O[C@@H]2O[C@H](CO)[C@H](O)[C@H](O)[C@H]2O)[C@@H]1O", "human recombinant core 3 β1,3-GlcNAc-transferase (C3GnT) (Homo sapiens, UniProt Q6ZMB0)", "C3GnT activity (%)", "<1%"],
  ["OC[C@H]1O[C@H](OCc2ccccc2)C[C@@H](O)[C@H]1O", "human recombinant core 3 β1,3-GlcNAc-transferase (C3GnT) (Homo sapiens, UniProt Q6ZMB0)", "C3GnT activity (%)", "<1%"],
  ["CC(=O)N[C@H]1[C@@H](OCc2ccccc2)O[C@H](CO[C@@H]2O[C@H](CO)[C@H](O)[C@H](O)[C@H]2O)[C@H](O)[C@@H]1O", "human recombinant core 3 β1,3-GlcNAc-transferase (C3GnT) (Homo sapiens, UniProt Q6ZMB0)", "C3GnT activity (%)", "<1%"],
  ["CC(=O)N[C@H]1[C@@H](OCc2ccccc2)O[C@H](CO)[C@H](O)[C@@H]1O [GalNAcα-Bn, reference compound]", "human recombinant core 3 β1,3-GlcNAc-transferase (C3GnT) (Homo sapiens, UniProt Q6ZMB0)", "C3GnT activity (%)", "100 ^b %"],
  ["CC(=O)N[C@H]1[C@@H](OCc2ccccc2)O[C@H](CO[C@@H]2O[C@H](CO)[C@@H](O)[C@H](O)[C@H]2NC(C)=O)[C@H](O)[C@@H]1O", "human recombinant core 3 β1,3-GlcNAc-transferase (C3GnT) (Homo sapiens, UniProt Q6ZMB0)", "C3GnT activity (%)", "<1%"],
  ["CC(=O)N[C@H]1[C@@H](OCc2ccccc2)O[C@H](COCCCC2CO2)[C@H](O)[C@@H]1O (stereo partly shown) [6-O-(4,5-Anhydro)pentyl-GalNAcα-Bn]", "human recombinant core 3 β1,3-GlcNAc-transferase (C3GnT) (Homo sapiens, UniProt Q6ZMB0)", "C3GnT activity (%)", "<1%"],
  ["C=C(C)C1CC=C(CO[C@H]2O[C@H](CO)[C@H](O)[C@H](O)[C@H]2NC(C)=O)CC1 (stereo partly shown)", "human recombinant core 3 β1,3-GlcNAc-transferase (C3GnT) (Homo sapiens, UniProt Q6ZMB0)", "C3GnT activity (%)", "153%"],
  ["CC(=O)NC1C(OP(=O)(O)OP(=O)(O)OCCCCCCCCCCCOc2ccccc2)OC(CO)C(O)C1O (stereo not shown)", "human recombinant core 3 β1,3-GlcNAc-transferase (C3GnT) (Homo sapiens, UniProt Q6ZMB0)", "C3GnT activity (%)", "<1%"]
]}

In: Could you please provide reported C3GnT activity (%) for CCO[C@H]1[C@@H](O)[C@@H](CO)O[C@H](OCc2ccccc2)[C@@H]1NC(C)=O ? Thanks!
Out: <1%

In: # return recorded C3GnT activity (%) for entry CCCO[C@H]1[C@@H](O)[C@@H](CO)O[C@H](OCc2ccccc2)[C@@H]1NC(C)=O
Out: <1%

In: Using the record for CC(=O)N[C@H]1C(O)O[C@H](CO)[C@H](O)[C@@H]1O (stereo partly shown) [GalNAc, reference compound] , state its measured C3GnT activity (%).
Out: <1%
